Please go through the items and note down their Top (MFI).
Biological target: T1, human LIV-1 (human, UniProt Q13433 29-755)
T1 construct: whole, on cells; also called H-LIV1
T1 sequence (looked up): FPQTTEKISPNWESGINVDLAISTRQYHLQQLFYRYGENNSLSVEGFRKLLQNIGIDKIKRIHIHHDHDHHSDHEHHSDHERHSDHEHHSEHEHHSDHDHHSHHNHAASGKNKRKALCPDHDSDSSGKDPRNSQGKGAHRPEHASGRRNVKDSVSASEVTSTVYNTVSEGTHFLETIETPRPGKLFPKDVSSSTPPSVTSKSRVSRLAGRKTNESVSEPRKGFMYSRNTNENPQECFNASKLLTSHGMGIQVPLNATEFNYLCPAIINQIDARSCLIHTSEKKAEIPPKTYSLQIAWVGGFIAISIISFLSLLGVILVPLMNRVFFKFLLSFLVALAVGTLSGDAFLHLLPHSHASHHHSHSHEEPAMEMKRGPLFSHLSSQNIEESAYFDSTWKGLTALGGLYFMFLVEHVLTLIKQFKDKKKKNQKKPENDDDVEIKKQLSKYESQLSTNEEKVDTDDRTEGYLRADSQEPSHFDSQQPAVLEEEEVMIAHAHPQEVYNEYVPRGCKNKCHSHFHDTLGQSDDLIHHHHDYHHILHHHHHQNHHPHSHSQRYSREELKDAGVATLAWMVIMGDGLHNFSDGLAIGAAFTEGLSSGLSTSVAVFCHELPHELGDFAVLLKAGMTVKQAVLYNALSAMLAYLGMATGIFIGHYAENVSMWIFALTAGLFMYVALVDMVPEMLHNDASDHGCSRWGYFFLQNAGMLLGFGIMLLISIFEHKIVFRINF
Assay: FACS, human LIV-1 cells
Report the figure along with its unit, number first.

Below, each entry is followed by its recorded Top (MFI) result.
290F10G10.p1.Z18 (antibody, V domains shown) VH: EIQLVQSGAEVKKPGASVKVSCKASGYTFTSYWIHWVREAPGQGLEWIGTIYPGDADTRSTQKFKDKATVTADKSTSTVYMELSSLRSEDTAVYYCTRSLIHDDYDKYYFDYWGQGTTVTVSS VL: DIQMTQSPSSLSASVGDRVTITCKARQDINKYIAWYQHKPGKGPKLLIHYTSILQPGIPSRFSGSGSGRDYTFTISSLQPEDIATYYCLQYDYFFTFGGGTKVEIK : 7430 MFI
290F10G10.p1.Z8 (antibody, V domains shown) VH: EVQLVQSGAEVKKPGASVKVSCKASGYTFTSYWIHWVRQAPGQGLEWIGTIYPGDADTRSTQKFKDKATVTADKSTSTVYMELSSLRSEDTAVYYCARSLIHDDYDKYYFDYWGQGTTVTVSS VL: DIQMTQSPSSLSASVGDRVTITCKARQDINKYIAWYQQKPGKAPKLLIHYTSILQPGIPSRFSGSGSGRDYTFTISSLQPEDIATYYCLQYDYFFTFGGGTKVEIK : 7540 MFI
290F10G10.p1.Z17 (antibody, V domains shown) VH: EIQLVQSGAEVKKPGASVKVSCKASGYTFTSYWIHWVREAPGQGLEWIGTIYPGDADTRSTQKFKDKATVTADKSTSTVYMELSSLRSEDTAVYYCTRSLIHDDYDKYYFDYWGQGTTVTVSS VL: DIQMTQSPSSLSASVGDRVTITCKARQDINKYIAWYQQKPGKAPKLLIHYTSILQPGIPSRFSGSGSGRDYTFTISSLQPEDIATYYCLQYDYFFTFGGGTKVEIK : 7520 MFI
290F10G10.p1.Z14 (antibody, V domains shown) VH: EVQLVQSGAEVKKPGASVKVSCKASGYTFTSYWIHWVRQAPGQGLEWIGTIYPGDADTRSTQKFKDKATVTADKSTSTVYMELSSLRSEDTAVYYCTRSLIHDDYDKYYFDYWGQGTTVTVSS VL: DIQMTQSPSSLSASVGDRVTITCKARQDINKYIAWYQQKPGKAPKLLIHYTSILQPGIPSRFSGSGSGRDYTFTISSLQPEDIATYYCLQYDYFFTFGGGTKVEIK : 7410 MFI

Query :: Give me measured Top (MFI), please, for this binder: 290F10G10.p1.Z12 (antibody, V domains shown) VH: EVQLVQSGAEVKKPGASVKVSCKASGYTFTSYWIHWVRQAPGQGLEWMGTIYPGDADTRSTQKFKDRVTVTADKSTSTVYMELSSLRSEDTAVYYCTRSLIHDDYDKYYFDYWGQGTTVTVSS VL: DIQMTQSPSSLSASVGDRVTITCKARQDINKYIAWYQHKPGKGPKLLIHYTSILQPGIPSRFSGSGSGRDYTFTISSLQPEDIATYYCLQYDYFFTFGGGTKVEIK
Result :: 7920 MFI
